Dear all, I have gathered published IC50 values for Serine/threonine-protein kinase Chk1 (Homo sapiens); the list follows.

Short answer on Serine/threonine-protein kinase Chk1 (Homo sapiens) for COc1cc2ncnc(Nc3cccc(Cl)c3F)c2cc1CN(C)C1(C(N)=O)CCN(C)CC1 , IC50: > 10 µM

Short answer on Serine/threonine-protein kinase Chk1 (Homo sapiens) for CC(C)CC(=O)Nc1[nH]nc2c1CN(C(=O)C1CCN(C)CC1)C2(C)C , IC50: > 10 µM

Short answer on Serine/threonine-protein kinase Chk1 (Homo sapiens) for O=C1N=C(NC2CCCCC2)N/C1=C1/CCNC(=O)c2[nH]c(-c3ccccc3)cc21 , IC50: > 10 µM

Short answer on Serine/threonine-protein kinase Chk1 (Homo sapiens) for COC(=O)CCNc1c(-c2nc3ccccc3[nH]2)c(=O)[nH]c2sccc12 , IC50: > 10 µM
